B1: library; a variant is named by its letters at N, in order (parent)
chain: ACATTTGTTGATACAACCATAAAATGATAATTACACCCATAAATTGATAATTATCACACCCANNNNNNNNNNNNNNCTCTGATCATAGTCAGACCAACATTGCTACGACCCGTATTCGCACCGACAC

Variants of: B1
method-notes: relative integration efficiency (T-RL orientation) vs wild-type transposon end (log2 (normalized fold change)); transposon end mutated: right end (5 bp flank + 75 bp right end); higher = more efficient transposition
condition-summary: with VchCAST RNA-guided transposition machinery (E. coli BL21(DE3) host, lacZ target)
// relative integration efficiency (log2) lookup, one value per entry
readout-kind: relative integration efficiency (log2)

> print(dat)
              mutant.id                            readout.kind  experimental.result
 1  TAAATTGATATTGC T20A  relative integration efficiency (log2)               -0.299
 2       TAAATTGAATTTGC  relative integration efficiency (log2)               -0.179
 3  TAAATTGATATTGC G46A  relative integration efficiency (log2)               -0.369
 4  ATTTAACTATAACG C36A  relative integration efficiency (log2)               -0.593
 5       TAAATTGATATACC  relative integration efficiency (log2)               -0.223
 6  TAAATTGATATTGC T32G  relative integration efficiency (log2)                -1.26
 7   TAAATTGATATTGC T8C  relative integration efficiency (log2)               -0.808
 8  TAAATTGATATTGC A62C  relative integration efficiency (log2)               -0.726
 9   ATTTAACTATAACG T8C  relative integration efficiency (log2)                 -1.8
10  TAAATTGATATTGC A23C  relative integration efficiency (log2)                0.346
11       TAAATTGAAATTGC  relative integration efficiency (log2)               -0.187
12  TAAATTGATATTGC A23T  relative integration efficiency (log2)                 1.42
13   TAAATTGATATTGC A1G  relative integration efficiency (log2)               -0.139
14  TAAATTGATATTGC C57T  relative integration efficiency (log2)               -0.204
15  TAAATTGATATTGC T12A  relative integration efficiency (log2)               -0.107
16  ATTTAACTATAACG T31C  relative integration efficiency (log2)               -0.932
17       TAAATTGATATTAC  relative integration efficiency (log2)                -0.14
18  ATTTAACTATAACG A50C  relative integration efficiency (log2)                -1.36
19  ATTTAACTATAACG C18G  relative integration efficiency (log2)                -1.04
20  ATTTAACTATAACG T54C  relative integration efficiency (log2)                -1.04
21  ATTTAACTATAACG T54A  relative integration efficiency (log2)                -1.14
22  TAAATTGATATTGC A24C  relative integration efficiency (log2)                0.238
23       TAAATGTATATTGC  relative integration efficiency (log2)            -0.000422
24  TAAATTGATATTGC T31G  relative integration efficiency (log2)               -0.564
25  TAAATTGATATTGC A33T  relative integration efficiency (log2)               -0.264
26  TAAATTGATATTGC C61T  relative integration efficiency (log2)              -0.0918
27       TAAATTGATATTCG  relative integration efficiency (log2)              -0.0179
28  TAAATTGATATTGC T80C  relative integration efficiency (log2)              -0.0687
29  ATTTAACTATAACG G10C  relative integration efficiency (log2)                -1.15
30  TAAATTGATATTGC A19T  relative integration efficiency (log2)               -0.574
31  TAAATTGATATTGC A33C  relative integration efficiency (log2)              0.00253
32  TAAATTGATATTGC C36T  relative integration efficiency (log2)               -0.172
33  ATTTAACTATAACG A56C  relative integration efficiency (log2)                -1.09
34       TAAAGGGATATTGC  relative integration efficiency (log2)               -0.254
35  TAAATTGATATTGC A53G  relative integration efficiency (log2)               -0.385

Where do the numbers come from? From the supplement of paper PMC10201428.
